biological target: Induced myeloid leukemia cell differentiation protein Mcl-1 (Homo sapiens); assay: Inhibition of FAM-Bid binding to human MCL1 expressed in Escherichia coli BL21 after 30 mins by fluorescence polarization assay
Sequence (Q07820 whole entry): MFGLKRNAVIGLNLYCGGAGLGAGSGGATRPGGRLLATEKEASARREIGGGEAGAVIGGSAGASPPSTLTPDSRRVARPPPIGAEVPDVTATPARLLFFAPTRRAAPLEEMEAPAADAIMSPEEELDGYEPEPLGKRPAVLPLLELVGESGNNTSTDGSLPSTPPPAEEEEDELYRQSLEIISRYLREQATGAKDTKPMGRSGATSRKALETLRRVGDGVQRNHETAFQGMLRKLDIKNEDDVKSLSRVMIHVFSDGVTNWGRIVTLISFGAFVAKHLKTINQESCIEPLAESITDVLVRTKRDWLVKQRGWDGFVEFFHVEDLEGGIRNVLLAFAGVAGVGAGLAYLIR
Parameter: pKi. Scope: all listed entries.
Quick note: pKi values are minus log10 of concentrations in mol/L.

Some entries whose results are on file:
1) Cc1cc2c(C(C)C)c(O)c(O)c(C=O)c2c(O)c1-c1c(C)cc2c(C(C)C)c(O)c(O)c(C=O)c2c1O	6.79
2) COC(=O)CCCN/C=C1\C(=O)C(O)=C(C(C)C)c2cc(C)c(-c3c(C)cc4c(c3O)/C(=C/NCCCC(=O)OC)C(=O)C(O)=C4C(C)C)c(O)c21 (stereo in doubt; 16)	6.74
3) COC(=O)CCCCN/C=C1\C(=O)C(O)=C(C(C)C)c2cc(C)c(-c3c(C)cc4c(c3O)/C(=C/NCCCCC(=O)OC)C(=O)C(O)=C4C(C)C)c(O)c21	6.86
4) COC(=O)CN/C=C1\C(=O)C(O)=C(C(C)C)c2cc(C)c(-c3c(C)cc4c(c3O)/C(=C/NCC(=O)OC)C(=O)C(O)=C4C(C)C)c(O)c21	6.56
5) Cc1cc2c(c(O)c1-c1c(C)cc3c(c1O)/C(=C/NCC(=O)O)C(=O)C(O)=C3C(C)C)/C(=C/NCC(=O)O)C(=O)C(O)=C2C(C)C	6.92
6) COC(=O)CCCN/C=C1\C(=O)C(O)=C(C(C)C)c2cc(C)c(-c3c(C)cc4c(c3O)/C(=C/NCCCC(=O)OC)C(=O)C(O)=C4C(C)C)c(O)c21 (stereo in doubt; (+)-16)	6.62

Request: pKi lookup needed for COC(=O)CCCN/C=C1\C(=O)C(O)=C(C(C)C)c2cc(C)c(-c3c(C)cc4c(c3O)/C(=C/NCCCC(=O)OC)C(=O)C(O)=C4C(C)C)c(O)c21 (stereo in doubt; (-)-16) , thanks.
Response: 6.75

Request: Thanks! And `COC(=O)CCN/C=C1\C(=O)C(O)=C(C(C)C)c2cc(C)c(-c3c(C)cc4c(c3O)/C(=C/NCCC(=O)OC)C(=O)C(O)=C4C(C)C)c(O)c21` ?
Response: 6.24

Request: Thanks! And `Cc1cc2c(c(O)c1-c1c(C)cc3c(c1O)/C(=C/NCCCCC(=O)O)C(=O)C(O)=C3C(C)C)/C(=C/NCCCCC(=O)O)C(=O)C(O)=C2C(C)C` ?
Response: 7.07

Request: Thanks! And `Cc1cc2c(c(O)c1-c1c(C)cc3c(c1O)/C(=C/NCCCC(=O)O)C(=O)C(O)=C3C(C)C)/C(=C/NCCCC(=O)O)C(=O)C(O)=C2C(C)C` ?
Response: 7.03

Request: Thanks! And `COC(=O)CCCCCN/C=C1\C(=O)C(O)=C(C(C)C)c2cc(C)c(-c3c(C)cc4c(c3O)/C(=C/NCCCCCC(=O)OC)C(=O)C(O)=C4C(C)C)c(O)c21` ?
Response: 6.71

* * *

test: Cytotoxicity against human colon cancer cells assessed as cell growth inhibition after 48 hrs by SRB assay; format: functional; settings: Cancer cell lines
Parameter: GI50. Scope: all listed entries.
Answer format: numeric, µM implied, no suffix.

1) COC(=O)CCCCN/C=C1\C(=O)C(O)=C(C(C)C)c2cc(C)c(-c3c(C)cc4c(c3O)/C(=C/NCCCCC(=O)OC)C(=O)C(O)=C4C(C)C)c(O)c21	1
2) CC1(C)CCC(CN2CCN(c3ccc(C(=O)NS(=O)(=O)c4ccc(NCC5CCOCC5)c([N+](=O)[O-])c4)c(Oc4cnc5[nH]ccc5c4)c3)CC2)=C(c2ccc(Cl)cc2)C1	2.85
3) COC(=O)CN/C=C1\C(=O)C(O)=C(C(C)C)c2cc(C)c(-c3c(C)cc4c(c3O)/C(=C/NCC(=O)OC)C(=O)C(O)=C4C(C)C)c(O)c21	1.63

Request: GI50 lookup needed for `COC(=O)CCCCCN/C=C1\C(=O)C(O)=C(C(C)C)c2cc(C)c(-c3c(C)cc4c(c3O)/C(=C/NCCCCCC(=O)OC)C(=O)C(O)=C4C(C)C)c(O)c21` , thanks.
Response: 1.44

Request: Thanks! And COC(=O)CCCN/C=C1\C(=O)C(O)=C(C(C)C)c2cc(C)c(-c3c(C)cc4c(c3O)/C(=C/NCCCC(=O)OC)C(=O)C(O)=C4C(C)C)c(O)c21 (stereo in doubt; 16) ?
Response: 0.46

Request: Thanks! And `Cc1cc2c(C(C)C)c(O)c(O)c(C=O)c2c(O)c1-c1c(C)cc2c(C(C)C)c(O)c(O)c(C=O)c2c1O` ?
Response: 3.19
